B1: library; a variant is named by its letters at N, in order (parent)
chain: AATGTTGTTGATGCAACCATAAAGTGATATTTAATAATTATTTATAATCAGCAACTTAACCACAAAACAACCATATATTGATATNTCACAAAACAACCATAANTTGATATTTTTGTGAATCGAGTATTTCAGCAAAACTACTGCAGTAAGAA

# Variants of: B1
# Assay Name: relative integration efficiency (T-RL orientation) vs wild-type transposon end (log2 (normalized fold change)); transposon end mutated: left end; higher = more efficient transposition
# Measurement Setup: with VchCAST RNA-guided transposition machinery (E. coli BL21(DE3) host, lacZ target)
A collection of variants and their measured relative integration efficiency (log2)
Measure: relative integration efficiency (log2)

variant_descriptor="TA G24A T30A T76A T78G C87A A96C T112G T113C" number=0.299
variant_descriptor="CG A92T" number=-0.0452
variant_descriptor="TA A16C G24T T32G A33C T76A T78A T84A C87A A96C T112G T113C" number=-0.447
variant_descriptor="CG A27T T28A A29T T30A" number=-0.753
variant_descriptor="TA A22T G24T T31C A33C A70C T76A T84A C87A A102T T111C T113C" number=-0.168
variant_descriptor="CG A92C" number=-0.313
variant_descriptor="GG T30A T31A T32A A33T T84A T86A C87G T110A T111A T112A T113A" number=-1.15
variant_descriptor="CG A65T" number=0.0807
variant_descriptor="CG T43A A44T" number=-0.0354
variant_descriptor="CG A19C T20G" number=-2.69
variant_descriptor="CG A33G" number=0.292
variant_descriptor="CG A93T" number=-0.479
variant_descriptor="CG T48A" number=0.162
variant_descriptor="CG C18T" number=0.16
variant_descriptor="CG T111A" number=-0.134
variant_descriptor="CG A1T A2T T3A G4C T5A" number=0.103
variant_descriptor="CG T31A T32A" number=-0.131
variant_descriptor="CG A34C A36G T38C A40G T42C A62G A65G A66C" number=-0.685
variant_descriptor="CG T111A T112A" number=-0.479
variant_descriptor="CG C17A C18A" number=-1.15
variant_descriptor="TA A23G G24T A33T T76A A77G C87T T104G T113A" number=-0.339
variant_descriptor="CG A27C T28G A29C T30G" number=-2.43

Just for reference, the supplement of paper PMC10201428 is where these values come from.
